# targetOfAssay: recombinant human FLAP protein (Homo sapiens)
# Construct: made in house; host or cells: Sf9 insect cells (membrane fraction, 100,000 x g pellet)
# Sequence (P20292 whole entry): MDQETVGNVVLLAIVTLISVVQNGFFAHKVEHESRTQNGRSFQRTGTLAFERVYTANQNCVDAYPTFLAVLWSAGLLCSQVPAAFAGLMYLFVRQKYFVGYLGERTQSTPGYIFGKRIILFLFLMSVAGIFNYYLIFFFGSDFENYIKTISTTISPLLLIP
# experiment: FLAP binding assay (Scintillation Proximity Assay, displacement of [125I]L-691,831)
# measurementSetup: read-out: Human FLAP SPA Binding (IC50 nM)
# Protocol: Compounds are assessed for the ability to bind to FLAP in a binding assay that measures compound-specific displacement of an iodinated (^125I) FLAP inhibitor via a Scintillation Proximity Assay format (adapted from S. Charleson et al., Mol. Pharmacol., 1992, 41, 873-879). Cell pellets produced from sf9 insect cells expressing recombinant human FLAP protein are resuspended in buffer A [15 mM Tris-HCl (pH 7.5), 2 mM MgCl2, 0.3 mM EDTA, 1 mM PMSF]. […]
In this section we review reported log10(IC50) values for a set of compounds.
Hello, just confirming the data are log10 of IC50 with units of nM.

{"compound": "CC(C)C(C)(c1ccc(-c2cnc(N)nc2)nc1)c1cc(-c2cnn(C)c2)on1 (centres unmarked)", "log10(IC50)": 0.91}
{"compound": "Nc1ncc(-c2ccc(C3(c4nnc(-c5ccccc5)[nH]4)CCC3)cn2)cn1", "log10(IC50)": 0.94}
{"compound": "Nc1ncc(-c2ccc(C3(c4c[nH]c5ncccc45)CCC3)cc2)cn1", "log10(IC50)": 0.40}
{"compound": "CC(C)(O)Cn1cc(-c2coc([C@@](C)(c3ccc(-c4cnc(N)nc4)nc3)C3CC3)n2)cn1", "log10(IC50)": 2.26}

What does the data say about its log10(IC50)? Entry: CC(C)C(C)(c1ccc(-c2cnc(N)nc2)cc1)c1nc2ccccc2o1 (centres unmarked) 0.51

What does the data say about its log10(IC50)? Entry: "Nc1ncc(-c2ccc(C3(c4c[nH]c5cccnc45)CCC3)cc2)cn1" 0.48

What does the data say about its log10(IC50)? Entry: CN(C)CCn1cc(-c2cnc(C(C)(c3ccc(-c4cnc(N)nc4)cc3)C3CC3)s2)cn1 (centres unmarked) 0.91

What does the data say about its log10(IC50)? Entry: "Cn1cc(-c2coc([C@@](C)(c3ccc(-c4cnc(N)nc4)cc3)C3CC3)n2)cn1" 0.52

What does the data say about its log10(IC50)? Entry: "Nc1ncc(-c2ccc(C3(c4nc5ccccc5[nH]4)CCOCC3)cc2)cn1" 2.58

What does the data say about its log10(IC50)? Entry: "Nc1ncc(-c2ccc(C3(c4cn(CC(=O)N5CC(O)C5)c5ccccc45)CCC3)cc2)cn1" 0.88

What does the data say about its log10(IC50)? Entry: "Nc1ncc(-c2ccc(C3(c4cccn4S(=O)(=O)c4ccccc4)CCC3)cc2)cn1" 2.04

What does the data say about its log10(IC50)? Entry: CC(C)C(C)(c1ccc(-c2cnc(N)nc2)cc1)c1c[nH]c2c(C(=O)N3CCC(O)C3)cccc12 (centres unmarked) -0.22

What does the data say about its log10(IC50)? Entry: "Cc1ccc(-c2nnc(C3(c4ccc(-c5cnc(N)nc5)cc4)CCC3)[nH]2)cn1" 0.88

What does the data say about its log10(IC50)? Entry: "Cn1cc(-c2coc([C@@](C)(c3ccc(-c4cnc(N)nc4)nc3)C3CC3)n2)cn1" 2.04

----------
# targetOfAssay: recombinant human FLAP protein (Homo sapiens)
# Construct: made in house; host or cells: Sf9 insect cells (membrane fraction, 100,000 x g pellet)
# experiment: FLAP binding assay (Scintillation Proximity Assay, displacement of [125I]L-691,831)
# measurementSetup: read-out: Human FLAP SPA Binding (IC50 nM)
Assign a class from recorded IC50; defined classes: lower bin: < 3 nM; middle bin: ≥ 3 nM and < 30 nM; upper bin: ≥ 30 nM

{"compound": "Nc1ncc(-c2ccc(C3(c4c(-c5ccc(F)cc5)[nH]c5ccccc45)CCC3)cc2)cn1", "qualitativeLabel": "middle bin"}
{"compound": "Nc1ncc(-c2ccc(C3(c4c[nH]c5ccccc45)CCOCC3)cc2)cn1", "qualitativeLabel": "upper bin"}
{"compound": "Cn1cc(C(c2ccc(-c3cnc(N)nc3)cc2)C(C)(C)C)c2ccccc21 (centres unmarked)", "qualitativeLabel": "middle bin"}

Band for the recorded IC50 of "COC(=O)c1cc(Br)c(C2(c3ccc(-c4cnc(N)nc4)cc3)CCC2)n1C" ? upper bin

Band for the recorded IC50 of "Cn1cc(-c2cc([C@@](C)(c3ccc(-c4cnc(N)nc4)nc3)C3CC3)no2)cn1" ? upper bin

Band for the recorded IC50 of CC(C)C(C)(c1ccc(-c2cnc(N)nc2)cc1)c1cn(C)c2ccc(F)cc12 (centres unmarked) ? middle bin

Band for the recorded IC50 of CC(C)C(C)(c1ccc(-c2cnc(N)nc2)cc1)c1c[nH]c2c(C(=O)O)cccc12 (centres unmarked) ? lower bin

Band for the recorded IC50 of CC(C)C(C)(c1ccc(OCc2ccccn2)cc1)c1c[nH]c2cc(C(=O)O)ccc12 (centres unmarked) ? lower bin

Band for the recorded IC50 of CC(C)C(C)(c1ccc(-c2cnc(N)nc2)cc1)c1cn(C)c2ccccc12 (centres unmarked) ? middle bin

----------
# targetOfAssay: recombinant human FLAP protein (Homo sapiens)
# Construct: made in house; host or cells: Sf9 insect cells (membrane fraction, 100,000 x g pellet)
# experiment: FLAP binding assay (Scintillation Proximity Assay, displacement of [125I]L-691,831)
# measurementSetup: read-out: Human FLAP SPA Binding (IC50 nM)
In this section we review reported log10 IC50 values for a set of compounds.
Hello, just confirming the data are log10 of IC50 with units of nM.

Previously resolved entries follow.
{"compound": "CC(C)C(C)(c1ccc(-c2cnc(N)nc2)cc1)c1cn(Cc2ccccn2)c2cccc(F)c12 (centres unmarked) [Example 40]", "dataValue": 0.41}
{"compound": "Cc1ccc(-c2cc(C(C)(c3ccc(-c4cnc(N)nc4)nc3)C(C)C)[nH]n2)cn1 (centres unmarked) [Example 160]", "dataValue": 0.92}
{"compound": "COc1cncc(-c2ccc(C(c3ncc(Br)s3)C(C)C)cc2)c1 (centres unmarked) [Example 24]", "dataValue": 2.95}
{"compound": "COc1ncccc1-c1nnc(C2(c3ccc(-c4cnc(N)nc4)cc3)CCC2)[nH]1 [Example 153]", "dataValue": 0.49}
{"compound": "Cn1cc(C(c2ccc(-c3cnc(N)nc3)cn2)C(C)(C)C)c2ccccc21 (centres unmarked) [Example 156]", "dataValue": 2.41}

What does the data say about its log10 IC50? Entry: Nc1ncc(-c2ccc(C3(c4c[nH]c5c(C(=O)N6CC(O)C6)cccc45)CCC3)cc2)cn1 [Example 113] 0.04

What does the data say about its log10 IC50? Entry: CNC(=O)c1cccc2c(C3(c4ccc(-c5cnc(N)nc5)cc4)CCC3)c[nH]c12 [Example 6] 0.18

What does the data say about its log10 IC50? Entry: CC(C)C(C)(c1ccc(-c2cnc(N)nc2)cc1)c1c[nH]c2cccc(F)c12 (centres unmarked) [Example 58] 0.04

What does the data say about its log10 IC50? Entry: Cc1ccc(-c2cc(C3(c4ccc(-c5cnc(N)nc5)cc4)CCC3)[nH]n2)cn1 [Example 18] 0.60

What does the data say about its log10 IC50? Entry: CCc1noc(CN(CC)C(=O)c2cccc3c(C4(c5ccc(-c6cnc(N)nc6)cc5)CCC4)c[nH]c23)n1 [Example 12] 0.43

----------
In this section we review reported IC50 values for a set of compounds.
# targetOfAssay: recombinant human FLAP protein (Homo sapiens)
# Construct: made in house; host or cells: Sf9 insect cells (membrane fraction, 100,000 x g pellet)
# experiment: FLAP binding assay (Scintillation Proximity Assay, displacement of [125I]L-691,831)
# measurementSetup: read-out: Human FLAP SPA Binding (IC50 nM)
Numeric only. Scale: nM

Previously resolved entries follow.
{"compound": "Nc1ncc(-c2ccc(C3(c4c[nH]c5c(C(=O)N6CC[C@H](O)C6)cccc45)CCC3)cc2)cn1 [Example 135]", "IC50 / nM": 2.3}
{"compound": "CC(C)C(C)(c1ccc(-c2cnc(N)nc2)cc1)c1cc2ccc(F)cc2[nH]1 (centres unmarked) [Example 61]", "IC50 / nM": 9.3}
{"compound": "Nc1ncc(-c2ccc(C3(c4nc5ccccc5[nH]4)CCC3)cn2)cn1 [Example 137]", "IC50 / nM": 410}

What does the data say about its IC50? Entry: Nc1ncc(-c2ccc(C3(c4c[nH]c5cc(C(=O)NC6CCS(=O)(=O)C6)ccc45)CCC3)cc2)cn1 (centres unmarked) [Example 1] 1.3

What does the data say about its IC50? Entry: CCc1nc(CN(C)C(=O)c2cccc3c(C4(c5ccc(-c6cnc(N)nc6)cc5)CCC4)c[nH]c23)no1 [Example 10] 2.4

What does the data say about its IC50? Entry: CC(C)C(C)(c1ccc(-c2cnc(N)nc2)cc1)c1c[nH]c2cc(C(=O)N3CCOCC3)ccc12 (centres unmarked) [Example 77] 1.7

What does the data say about its IC50? Entry: Cc1nc(CNC(=O)c2cccc3c(C4(c5ccc(-c6cnc(N)nc6)cc5)CCC4)c[nH]c23)no1 [Example 9] 2.2

What does the data say about its IC50? Entry: NC(=O)c1cccc2c(C3(c4ccc(-c5cnc(N)nc5)cc4)CCC3)c[nH]c12 [Example 117] 1.1

What does the data say about its IC50? Entry: COc1cccc2c1c(C(C)(c1ccc(-c3cnc(N)nc3)cc1)C(C)C)cn2Cc1ccccn1 (centres unmarked) [Example 50] 260

What does the data say about its IC50? Entry: COC(=O)c1ccc2c(C(C)(c3ccc(-c4cnc(N)nc4)cc3)C(C)C)c[nH]c2c1 (centres unmarked) [Example 70] 0.9

What does the data say about its IC50? Entry: CN(C)C(=O)Cn1cc(-c2coc([C@@](C)(c3ccc(-c4cnc(N)nc4)cc3)C3CC3)n2)cn1 [Example 195] 18
